TGI: recorded values
- Tested on: RPMI-8226 leukemia
- TEST_PROTOCOL: NCI tumour cell line growth inhibition, 48 h

Recorded TGI, per entry:
COMPOUND	MEASURED_ENDPOINT	OBSERVED_MEASUREMENT
Cc1ccc(NC(=O)/C(Cl)=C(/Cl)C(=O)O)cc1	TGI	49.8 µM
NCOC(=O)Cc1ccc(Br)cc1	TGI	> 100 µM
COc1ccc(C2C3CCc4ccccc4C3=NN2S(=O)(=O)c2ccc(/C=C/C(=O)O)cc2)cc1 (configuration not stated)	TGI	16 µM
O=c1c2cc(Cl)cc(Cl)c2oc2nc3n(c(=O)c12)CCCS3	TGI	> 100 µM
CSc1ncc2c(n1)sc1c(=O)n(-c3ccccc3)cnc12	TGI	> 100 µM
C=C(C(=C)P(=S)(c1ccccc1)c1ccccc1)P(=S)(c1ccccc1)c1ccccc1	TGI	> 100 µM

Query: Quick one: TGI of CCCCCCCCCCCCOC1C(CNC(=O)C2OC3OC(C)(C)OC3C2NC(=O)Nc2ccc(CC(=O)NC(Cc3ccccc3)C(=O)O)cc2)OC2OC(C)(C)OC21 (configuration not stated) ?
Response: > 25 µM

Query: Quick one: TGI of CCCCCCCCCCCCCCCCC(=O)O.CCCCCCCCCCCCCCCCCC(=O)O.CCCCCCCCCCCCCCCCCC(=O)O.CCCCCCCCCCCCCCCCCC(=O)O.CCCCCCCCCCCCCCCCCC(=O)O.CO[CH-]OC12COC1CC(O)C1(C)C(O)C(OC(C)O)C3=C(C)C(OC(=O)C(O)C([NH-])c4ccccc4)CC(O)(C(OC(=O)c4ccccc4)C21)C3(C)C.[Cu+].[Zn].[Zn].[Zn].[Zn].[Zn] (configuration not stated) ?
Response: > 25 µM

Query: Quick one: TGI of CCOC(=O)C(NC(=O)c1ccccc1)(Nc1ccc(Cl)cc1C(F)(F)F)C(F)(F)F (configuration not stated) ?
Response: > 100 µM

Query: Quick one: TGI of `CC(=O)Oc1ccc(/C(=C(\C)c2ccc(Cl)cc2)c2ccc(OCCN3CCCCC3)cc2)cc1` ?
Response: 4.64 µM

Query: Quick one: TGI of CC1CCC2(CC1)NC1=C(CC(C)CC1)C1=C2CC(C)CC1 (configuration not stated) ?
Response: 55.6 µM

Query: Quick one: TGI of `COc1ccc2[nH]c3c(C)c4ccnc(NCCCN(C)CCCNc5ccc6ncn7c8ccccc8c(=O)c5c67)c4c(C)c3c2c1` ?
Response: 4.56 µM

Query: Quick one: TGI of `Cn1c(/C=C/[N+](=O)[O-])cc2ccccc21` ?
Response: > 100 µM

Query: Quick one: TGI of `C[N+](C)(C)CC(=O)N/N=C/c1ccncc1` ?
Response: > 100 µM

Query: Quick one: TGI of `Cn1c(=O)c(Oc2ccc(F)cc2F)cc2cnc(NC3CCS(=O)(=O)CC3)nc21` ?
Response: > 25 µM

Query: Quick one: TGI of `Nc1nc2c(ncn2Cc2ccccc2CO)c(=O)[nH]1` ?
Response: > 100 µM

Query: Quick one: TGI of O=C(O)c1ccc(C2SCc3nc4ccccc4n32)cc1 (configuration not stated) ?
Response: > 100 µM

Query: Quick one: TGI of `Cc1cccc(-c2cc(=O)c3c(C)cc(C)nc3[nH]2)c1` ?
Response: > 52.1 µM

Query: Quick one: TGI of `OCc1ccc(N2CCc3ccccc3C2)cc1Cl` ?
Response: 87.9 µM

Query: Quick one: TGI of `COc1cc(C(=O)Nc2cc(OC)c3ccn(C)c3c2)cc2c1C[C@]1(C)CC[C@@H](O)C(C)(C)[C@H]1O2` ?
Response: 1.16 µM

Query: Quick one: TGI of `COC(=O)[C@H](Cc1ccc(OC(C)(C)C)cc1)N[C@H](C)C(=O)N[C@@H](Cc1ccccc1)C(=O)OCc1ccccc1` ?
Response: > 100 µM

Query: Quick one: TGI of `COc1ccc2nc3ccc(OC)cc3c(SCc3ccccc3)c2c1` ?
Response: > 100 µM

Query: Quick one: TGI of O=C(O)CC(Sc1ccccc1)c1ccccc1 (configuration not stated) ?
Response: > 100 µM

Query: Quick one: TGI of O=S(=O)(/N=c1/scc(-c2ccccc2)n1-c1ccccc1)c1ccc(N2N=C3c4ccccc4CC3C2c2cccs2)cc1 (configuration not stated) ?
Response: > 100 µM

Query: Quick one: TGI of `Clc1ccc(OCc2nnc3n2N=C(c2ccc(Cl)cc2Cl)CS3)cc1` ?
Response: 68.5 µM

Query: Quick one: TGI of `CS(=O)(=O)CC(=O)c1ccccc1` ?
Response: > 100 µM

Query: Quick one: TGI of `Cn1c(=O)sc2cc(C(=S)N3CCC(Cc4ccccc4)CC3)ccc21` ?
Response: > 100 µM

Query: Quick one: TGI of O=C(CNC(c1ccccc1)(c1ccccc1)c1ccccc1)NC1CCCCC1NC(=O)CNC(c1ccccc1)(c1ccccc1)c1ccccc1 (configuration not stated) ?
Response: > 100 µM

###

- System: SNB-19 CNS
- TEST_PROTOCOL: NCI tumour cell line growth inhibition, 48 h
TGI: recorded values
Just the number in µM, nothing appended.

Query: Quick one: TGI of `COc1cc2c(cc1OCCCCOc1cc3c(cc1OC)C(=O)N1CCC[C@H]1C(=O)N3)N=C[C@@H]1CCCN1C2=O` ?
Response: 20.5

Query: Quick one: TGI of `COc1cc2c(cc1Nc1nc(Nc3cccc(F)c3C(N)=O)c3cc[nH]c3n1)N(C(=O)CN1CCN(C(C)C)CC1)CC2` ?
Response: 8.27

###

- Tested on: UACC-62 melanoma
- TEST_PROTOCOL: NCI tumour cell line growth inhibition, 48 h
GI50: recorded values

Recorded GI50, per entry:
COMPOUND	OBSERVED_MEASUREMENT
Cn1c(NCC(O)CN2CCCC2)cc(=O)n(C)c1=O (stereo not drawn)	> 100 µM
COc1cc(-c2cc(-c3cc(OC)c(OC)c(OC)c3)nc3nc(N)[nH]c(=O)c23)ccc1Oc1ccnc2cc(Cl)ccc12	3.55 µM

Now turn to the next compound.
Query: Quick one: GI50 of `Cc1cc(N(CCCl)CCCl)ccc1C=Nc1ccc2ccccc2c1` ?
Response: 2.45 µM

###

- Test system: NCI-H226 lung
- TEST_PROTOCOL: NCI tumour cell line growth inhibition, 48 h
MEASURED_ENDPOINT: GI50

Recorded GI50, per entry:
COMPOUND	GI50
Cc1ccc(Cl)c(Nc2ccccc2C(=O)O)c1Cl	28 µM
COc1cc(C(=O)Nc2cc(OC)c3ccn(C)c3c2)cc2c1C[C@]1(C)CC[C@@H](O)C(C)(C)[C@H]1O2	7.69 µM
O=C(Nc1ccc(/C=C/c2ccc(NC(=O)c3cc(S(=O)(=O)O)c4cccnc4c3O)cc2S(=O)(=O)O)c(S(=O)(=O)O)c1)c1cc(S(=O)(=O)O)c2cccnc2c1O	6.29 µM
O=C1OCC2=C1C(c1ccc(Cl)c(Cl)c1)c1cc3c(cc1N2CCO)CCC3 (stereo not given)	0.248 µM

Query: Could you share what GI50 was measured for O=S(=O)(/N=c1/scc(-c2ccccc2)n1-c1ccccc1)c1ccc(N2N=C3c4ccccc4CC3C2c2cccs2)cc1 (stereo not given) , tested on NCI-H226 lung?
Response: 78.9 µM

###

- System: K-562 leukemia
- TEST_PROTOCOL: NCI tumour cell line growth inhibition, 48 h; in the data active = GI50 below about 0.43 µM; inactive = the rest
// classify into true for active, false for inactive

COMPOUND	TARGET_ENTITY	LABEL_CLASS
COc1cc(/C=C/C(=O)N2CCN(C(=O)c3cc(OC)c(OC)c(OC)c3)CC2)ccc1OCCCOc1cc2c(cc1OC)C(=O)N1CCC[C@H]1C=N2	K-562 leukemia	true
Clc1cc(Cl)cc(N2N=C(c3cccc(Nc4ccncc4)c3)CC2c2ccc3c(c2)OCO3)c1 (stereo unspecified)	K-562 leukemia	false
CCN(CC)C1CCC(Nc2c(C(C)=O)cnc3ccc(-c4ccc(O)c(Cl)c4)cc23)CC1 (stereo unspecified)	K-562 leukemia	true
CC(=O)OC1CC2C3CCC4C[C@@H](NC(=O)C=C(C)C)CC[C@]4(C)C3CC[C@]2(C)[C@H]1C(C)N(C)C (stereo partly specified)	K-562 leukemia	false
COc1ccc(C2=NN(C(=O)c3cc(OC)c(OC)c(OC)c3)C(c3ccc(N(C)C)cc3)C2)cc1 (stereo unspecified)	K-562 leukemia	false

Here is another compound to look at.
Query: So what was the verdict on `OCc1ccc(N2CCc3ccccc3C2)cc1Cl` in this test?
Response: true

###

- Test system: BT-549 breast
- TEST_PROTOCOL: NCI tumour cell line growth inhibition, 48 h
TGI: recorded values

Query: Quick one: TGI of `COC(=O)[C@H](CC(C)C)Nc1c(O)c2c(c(O)c1Cl)C(=O)C=CC2=O` ?
Response: > 10 µM

Query: Quick one: TGI of `Cn1cc(C2=C(c3cn(C)c4ccccc34)C(=O)NC2=O)c2ccccc21` ?
Response: > 25 µM

Query: Quick one: TGI of `CC(C)(C)c1c2c(c(C(C)(C)C)c3c1OCN(Cc1ccccc1)C3)OCN(Cc1ccccc1)C2` ?
Response: 39.4 µM
